ASSAY EXPLANATION: Metabolic stability in rat hepatic microsomes
DETAILS: Sprague-Dawley, rat, microsomes, 1 h, 1 μM, pH 7.4
Parameter: % unmetabolized compound, Rat. Scope: all listed entries.
ENDPOINT: % unmetabolized compound, Rat

INSERT INTO measurements (molecule, endpoint, observed) VALUES
  ('CC(C)(O)Cn1c2ccccc2c2cc(NC(=O)c3ccccc3C(F)(F)F)ccc21', '% unmetabolized compound, Rat', '68%'),
  ('CC(=O)Cn1c2ccccc2c2cc(NC(=O)c3ccccc3C(F)(F)F)ccc21', '% unmetabolized compound, Rat', '58%'),
  ('CC(C)(O)CCn1c2ccccc2c2cc(NC(=O)c3ccccc3C(F)(F)F)ccc21', '% unmetabolized compound, Rat', '65%'),
  ('CC(C)(O)CCn1c2ccccc2c2cc(NC(=O)c3ccccc3Cl)ccc21', '% unmetabolized compound, Rat', '74%');

* * *

ASSAY EXPLANATION: In vivo bioavailability, oral cassette dosing
DETAILS: oral 5 mg/kg, plasma
Parameter: Tmax. Scope: all listed entries.
ENDPOINT: Tmax (h)

INSERT INTO measurements (molecule, observed) VALUES
  ('O=C(Nc1ccc2c(c1)c1ccccc1n2CCO)c1ccccc1C(F)(F)F', 1.5),
  ('CC(C)(O)CCn1c2ccccc2c2cc(NC(=O)c3ccccc3C(F)(F)F)ccc21', 1.8),
  ('CC(C)(O)Cn1c2ccccc2c2cc(NC(=O)c3ccccc3C(F)(F)F)ccc21', 4.3);

* * *

ASSAY EXPLANATION: in vitro
DETAILS: human, Caco-2, pH 7.4
ENDPOINT: Papp at 3600 seconds, 10 μM

INSERT INTO results (compound, endpoint, observed) VALUES
  ('CC(C)NCC(O)COc1cccc2ccccc12 (stereo not drawn) [Propranolol, propranolol, reference compound]', 'Papp at 3600 seconds, 10 μM', '> 20 ×10⁻⁶ cm/s'),
  ('C[C@H]1O[C@@H](O[C@H]2[C@@H](O)C[C@H](O[C@H]3[C@@H](O)C[C@H](O[C@H]4CC[C@@]5(C)[C@H](CC[C@@H]6[C@@H]5C[C@@H](O)[C@]5(C)[C@@H](C7=CC(=O)OC7)CC[C@]65O)C4)O[C@@H]3C)O[C@@H]2C)C[C@H](O)[C@@H]1O [Digoxin, digoxin, reference compound]', 'Papp at 3600 seconds, 10 μM', '< 2 ×10⁻⁶ cm/s'),
  ('CC(C)(O)CCn1c2ccccc2c2cc(NC(=O)c3ccccc3Cl)ccc21 [Compound 6]', 'Papp at 3600 seconds, 10 μM', '> 20 ×10⁻⁶ cm/s');

* * *

Parameter: melting point. Scope: all listed entries.
ENDPOINT: melting point

INSERT INTO measurements (molecule, observed) VALUES
  ('CC(C)(O)CCn1c2ccccc2c2cc(NC(=O)c3ccccc3C(F)(F)F)ccc21', '188 to 189 °C'),
  ('O=C(Nc1ccc2c(c1)c1ccccc1n2CCO)c1ccccc1C(F)(F)F', '176 to 177 °C'),
  ('CC(=O)Cn1c2ccccc2c2cc(NC(=O)c3ccccc3C(F)(F)F)ccc21', '223 to 226 °C'),
  ('CC(C)(O)Cn1c2ccccc2c2cc(NC(=O)c3ccccc3C(F)(F)F)ccc21', '179 to 181 °C'),
  ('O=C(Nc1ccc2c(c1)c1ccccc1n2CCO)c1ccccc1Cl', '168 to 169 °C'),
  ('CC(C)(O)CCn1c2ccccc2c2cc(NC(=O)c3ccccc3Cl)ccc21', '120 to 124 °C');

* * *

Parameter: AUC(0-t). Scope: all listed entries.
ASSAY EXPLANATION: In vivo bioavailability, oral cassette dosing
DETAILS: oral 5 mg/kg, plasma, first seven hours, read-out: AUC0-7
ENDPOINT: AUC(0-t) (ng·h/mL)

INSERT INTO results (molecule, endpoint, observed) VALUES
  ('CC(C)(O)CCn1c2ccccc2c2cc(NC(=O)c3ccccc3C(F)(F)F)ccc21', 'AUC(0-t)', 2670),
  ('CC(C)(O)Cn1c2ccccc2c2cc(NC(=O)c3ccccc3C(F)(F)F)ccc21', 'AUC(0-t)', 5400),
  ('O=C(Nc1ccc2c(c1)c1ccccc1n2CCO)c1ccccc1C(F)(F)F', 'AUC(0-t)', 5750);
